B1: PLAGL1 (parent)
chain: CKDFLCQFCAQRFGRKDHLTRHTK

# Variants of: B1
# method_notes: protein stability index of a GFP-peptide fusion (GPS, HEK-293T) (PSI 1-6); higher = more stable;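 further: lentivirally expressed fusions sorted by FACS into six bins by GFP to DsRed ratio, PSI derived from sequencing read proportions per bin multiplied by bin number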
# assay_context: c terminus: a fixed tail appended
For each of the variants below, state its protein stability index.
Returns: the value as a bare number; no unit string appended.

Data request: Entry R12D has what protein stability index?
Data returned: 1.65

Data request: Entry R15S has what protein stability index?
Data returned: 1.73

Data request: Entry Q7T has what protein stability index?
Data returned: 2.35

Data request: Entry Q11M has what protein stability index?
Data returned: 2.22

Data request: Entry G14S has what protein stability index?
Data returned: 2.72

Data request: Entry H18F has what protein stability index?
Data returned: 1.49

Data request: Entry T20H has what protein stability index?
Data returned: 1.96

Data request: Entry Q11P has what protein stability index?
Data returned: 2.07

Data request: Entry T23L has what protein stability index?
Data returned: 1.62

Data request: Entry K16T has what protein stability index?
Data returned: 2.82

Data request: Entry K2N has what protein stability index?
Data returned: 2.02

Data request: Entry R15T has what protein stability index?
Data returned: 1.93

Data request: Entry Q7H has what protein stability index?
Data returned: 1.96

Data request: Entry K2I has what protein stability index?
Data returned: 1.78

Data request: Entry C9Y has what protein stability index?
Data returned: 1.47

Data request: Entry F4D has what protein stability index?
Data returned: 1.76

Data request: Entry R12K has what protein stability index?
Data returned: 3.04

Data request: Entry H22A has what protein stability index?
Data returned: 2.03

Data request: Entry C1Y has what protein stability index?
Data returned: 2.44

Data request: Entry T23F has what protein stability index?
Data returned: 2.23

Data request: Entry T20A has what protein stability index?
Data returned: 2.25

Data request: Entry C6T has what protein stability index?
Data returned: 2.04

The values you see were collected from the supplement of paper PMC10567573.
